Target: T1, full length human DLL4 (human, UniProt Q9NR61 27-685)
T1 construct: whole, on cells; also called native DLL4 expressed in HEK293 cells
T1 sequence (Q9NR61 27-685): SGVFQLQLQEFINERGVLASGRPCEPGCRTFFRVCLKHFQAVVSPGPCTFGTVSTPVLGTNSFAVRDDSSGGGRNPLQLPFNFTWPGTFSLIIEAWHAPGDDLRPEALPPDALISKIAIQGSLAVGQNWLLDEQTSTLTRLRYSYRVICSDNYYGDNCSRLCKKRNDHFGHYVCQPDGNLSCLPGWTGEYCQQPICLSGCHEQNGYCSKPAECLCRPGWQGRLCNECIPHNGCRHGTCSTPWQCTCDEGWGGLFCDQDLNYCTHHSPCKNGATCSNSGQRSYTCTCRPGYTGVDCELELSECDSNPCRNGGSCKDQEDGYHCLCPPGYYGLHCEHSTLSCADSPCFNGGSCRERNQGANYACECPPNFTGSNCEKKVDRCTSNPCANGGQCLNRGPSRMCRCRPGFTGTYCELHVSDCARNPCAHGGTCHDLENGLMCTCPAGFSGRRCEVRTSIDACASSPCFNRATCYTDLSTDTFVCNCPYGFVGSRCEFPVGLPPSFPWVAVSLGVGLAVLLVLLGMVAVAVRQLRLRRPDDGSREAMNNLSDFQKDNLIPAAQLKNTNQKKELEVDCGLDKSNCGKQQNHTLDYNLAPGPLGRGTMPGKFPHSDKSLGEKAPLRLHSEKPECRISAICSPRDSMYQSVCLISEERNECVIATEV
Assay: FMAT competition, purified antibody vs Alexa-647 human Notch1/Fc, 293T cells with human DLL4
Protocol: To discriminate between the purified antibodies based upon their ability to prevent the interaction between full-length recombinant DLL4 and soluble Notch1/Fc, the following assays were performed. […] After a further 3 h incubation at 4° C., the amount of bound Notch1/Fc was determined by reading the fluorescence in each well using an FMAT 8200 instrument (Applied Biosystems).
For each record, write down the corresponding % inhibition at 1.9 nM.
Answers are plain numbers, in %.

9G8 (antibody, IgG4, V domains shown, Fully human; used for IgG4 rows and where no isotype is printed; also called 9G8 IgG4) VH: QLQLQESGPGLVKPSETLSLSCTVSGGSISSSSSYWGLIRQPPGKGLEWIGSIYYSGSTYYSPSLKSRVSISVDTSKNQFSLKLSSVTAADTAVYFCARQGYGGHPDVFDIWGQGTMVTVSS VL: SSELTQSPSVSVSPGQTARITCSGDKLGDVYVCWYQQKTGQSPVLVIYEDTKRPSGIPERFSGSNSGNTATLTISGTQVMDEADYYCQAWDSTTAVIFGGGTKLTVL    68
20G8 (antibody, IgG4, V domains shown, Fully human; also used where no isotype is printed) VH: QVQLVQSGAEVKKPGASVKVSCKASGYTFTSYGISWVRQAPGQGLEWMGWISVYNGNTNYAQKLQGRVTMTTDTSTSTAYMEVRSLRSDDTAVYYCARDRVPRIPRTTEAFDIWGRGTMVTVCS VL: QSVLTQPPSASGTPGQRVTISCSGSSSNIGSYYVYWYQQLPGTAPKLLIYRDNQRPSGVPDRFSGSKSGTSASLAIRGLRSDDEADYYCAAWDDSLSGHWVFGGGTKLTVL    29
17F3 (antibody, IgG2, V domains shown, Fully human; also used where no isotype is printed) VH: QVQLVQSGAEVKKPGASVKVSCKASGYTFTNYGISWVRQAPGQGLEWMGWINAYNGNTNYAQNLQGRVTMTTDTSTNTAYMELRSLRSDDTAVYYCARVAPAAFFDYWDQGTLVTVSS VL: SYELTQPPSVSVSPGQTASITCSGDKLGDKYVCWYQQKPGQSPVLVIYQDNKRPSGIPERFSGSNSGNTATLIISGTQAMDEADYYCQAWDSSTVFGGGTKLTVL    69
1D4 (antibody, IgG4, V domains shown, Fully human XenoMouse antibody; also used where no isotype is printed) VH: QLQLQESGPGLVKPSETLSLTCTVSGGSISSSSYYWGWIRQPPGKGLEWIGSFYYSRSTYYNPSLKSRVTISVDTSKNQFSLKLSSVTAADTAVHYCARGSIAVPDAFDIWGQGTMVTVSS VL: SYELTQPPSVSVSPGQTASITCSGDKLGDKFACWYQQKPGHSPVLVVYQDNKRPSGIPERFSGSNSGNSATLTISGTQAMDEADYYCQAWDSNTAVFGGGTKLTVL    58

For 4B4 (antibody, IgG4, V domains shown, Fully human; used for IgG4 rows and where no isotype is printed; also called 4B4 IgG4; 4B4.1) VH: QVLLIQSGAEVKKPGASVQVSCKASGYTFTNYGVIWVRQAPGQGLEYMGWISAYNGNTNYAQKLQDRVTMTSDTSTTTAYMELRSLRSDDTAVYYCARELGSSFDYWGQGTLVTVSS VL: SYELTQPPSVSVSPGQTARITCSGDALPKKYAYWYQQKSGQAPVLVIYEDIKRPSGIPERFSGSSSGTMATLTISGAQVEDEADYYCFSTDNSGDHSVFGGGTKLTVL the binder record lists % inhibition at 1.9 nM as 95

# credit: patent US20100196385A1
